target: M-phase inducer phosphatase 2 (Homo sapiens) (UniProt P30305); test: Inhibitory activity against Cell division cycle 25B at 100 uM
Sequence (P30305 whole entry): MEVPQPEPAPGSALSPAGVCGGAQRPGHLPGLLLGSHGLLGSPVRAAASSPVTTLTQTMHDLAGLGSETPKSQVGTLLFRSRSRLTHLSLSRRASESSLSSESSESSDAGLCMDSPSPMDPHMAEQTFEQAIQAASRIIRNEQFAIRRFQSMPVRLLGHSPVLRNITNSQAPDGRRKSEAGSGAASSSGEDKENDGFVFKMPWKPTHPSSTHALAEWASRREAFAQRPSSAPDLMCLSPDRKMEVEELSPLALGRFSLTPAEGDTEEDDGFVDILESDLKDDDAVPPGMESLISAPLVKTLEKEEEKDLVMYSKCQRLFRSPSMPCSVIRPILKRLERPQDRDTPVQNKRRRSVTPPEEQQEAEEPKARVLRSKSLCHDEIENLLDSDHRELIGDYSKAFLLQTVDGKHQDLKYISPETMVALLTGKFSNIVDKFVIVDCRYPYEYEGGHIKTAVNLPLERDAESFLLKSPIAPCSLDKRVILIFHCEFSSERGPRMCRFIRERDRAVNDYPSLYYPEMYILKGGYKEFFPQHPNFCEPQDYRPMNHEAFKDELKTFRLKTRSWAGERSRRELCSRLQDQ
Kindly state inhibition for each of the entries shown.
Give bare numbers, in %.

Line Notation: O=C(O)[C@@H]1Cc2cc(I)c(OCc3cccc(C(F)(F)F)c3)c(I)c2CN1C(=O)/C=C/c1ccc(Cl)cc1
Measured Target: M-phase inducer phosphatase 2 (Homo sapiens) (UniProt P30305)
Value Kind: inhibition
Unit String: %
Reported Result: 22
//
Line Notation: C/C(=C\c1ccccc1)C(=O)N1Cc2c(cc(I)c(OCCCCl)c2I)C[C@H]1C(=O)O
Measured Target: M-phase inducer phosphatase 2 (Homo sapiens) (UniProt P30305)
Value Kind: inhibition
Unit String: %
Reported Result: 12
//
Line Notation: COc1cccc(COc2c(I)cc3c(c2I)CN(C(=O)/C=C/c2ccccc2C(F)(F)F)[C@H](C(=O)O)C3)c1
Measured Target: M-phase inducer phosphatase 2 (Homo sapiens) (UniProt P30305)
Value Kind: inhibition
Unit String: %
Reported Result: 28

--- query ---
Challenge: What value of inhibition has been recorded for this entry: COc1cccc(COc2c(I)cc3c(c2I)CN(C(=O)/C=C/c2ccccc2F)[C@H](C(=O)O)C3)c1
Response given: 34
